test: NCI Yeast Anticancer Drug Screen. Data for the mlh1 rad18 strain (AID 175); details: S. cerevisiae mlh1 rad18 strain growth inhibition; at 50.0 µM; active compounds read high
Compounds without any hit were thinned out: in the full panel of roughly 79,000, 15% have a hit.

{"columns": ["Compound", "Unit Of Measure", "growth inhibition"],
 "data": [
  ["Nc1ccc(Cn2ccc(=O)[nH]c2=O)cc1", "%", -0.8],
  ["CC(=O)N1CCC(=O)c2ccccc21", "%", -5.35],
  ["COc1ccccc1N=Nc1c(-c2ccccc2)nn(C(=O)CC(=O)Nc2cccc(C)c2)c1-c1ccccc1", "%", 27.3],
  ["Nc1nc2c(-c3ccc([N+](=O)[O-])cc3)nnn2c2ccccc12", "%", 25.3],
  ["CC(C)(C)c1cc(C(c2ccc3c(c2)OCO3)N2CCOCC2)c(O)c(C(C)(C)C)c1 (configuration not stated)", "%", 16.9],
  ["Cn1c(=O)oc2cc([N+](=O)[O-])c(Cl)cc21", "%", 6.75],
  ["CCSC1OC(C(COC(C)=O)OC(C)=O)C(OC(C)=O)C1NC(=O)OCc1ccccc1 (configuration not stated)", "%", -18.1]
]}

---

Experiment: NCI Yeast Anticancer Drug Screen. Data for the cln2 rad14 strain (AID 165);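 note: 0% = growth equal to vehicle treated cultures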
Conditions: S. cerevisiae cln2 rad14 strain, at 50.0 µM
Protocol: Growth inhibition of yeast strains with defined genetic alterations is measured as a screen for potential anti-cancer activity. Selected strains with alterations in DNA damage repair or cell cycle control were exposed to compounds and growth inhibition was measured relative to vehicle treated controls. The strain used in this assay is cln2 rad14
About 79,000 compounds went through this panel and 15% of them were active in at least one assay; those are over-represented in the sample as a whole. The source made the active and inactive calls. No stated cut-off is given here; in the data, active means growth inhibition above about 70%; inactive means the rest.
Classes used: 1 = active, 0 = inactive

{"columns": ["Molecule", "Class Name"],
 "data": [
  ["Cc1ccc(-c2cc(=O)c3cc(C)c(C)c(C(=O)O)c3o2)cc1N", 0],
  ["CC/C(=N\\NC(=O)c1ccncc1)c1ccc(Cl)cc1", 0],
  ["O=C(O)C(=N\\Nc1ccccc1)/C(=N\\Nc1ccccc1)C(=O)O", 0],
  ["Cc1cc(=O)[nH]c(NNC(C#N)c2c(O)ccc3ccccc23)n1 (configuration not stated)", 0],
  ["CCN(C/C=C/CN(CC)C(=S)Nc1ccccc1)C(=S)Nc1ccccc1", 0],
  ["CCCc1c(O)c(=O)c2c(OC)cc(OC)c3c4c(OC)cc(OC)c5c(=O)c(O)c(CCC)c(c1c23)c54", 1],
  ["O=C1/C(=C\\c2ccccc2)C2C3CCC(C3)C2/C1=C\\c1ccccc1 (configuration not stated)", 0]
]}

---

Each entry below carries its recorded growth inhibition.
assay: NCI Yeast Anticancer Drug Screen. Data for the sgs1 mgt1 strain (AID 161);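 note: 0% = growth of cultures given vehicle only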; settings: S. cerevisiae sgs1 mgt1 strain, at 50.0 µM, active compounds read high
This is part of a sample that, as a whole, favours compounds with a hit. Of some 79,000 tested, about 15% had one in any assay. The source made the active and inactive calls. Rule as the data show it: active = growth inhibition above about 70%; inactive = the rest.

{"columns": ["Molecule", "growth inhibition"],
 "data": [
  ["CNc1nc(N(C)C)nc(N(C)C)n1", "15.6% (inactive)"],
  ["COc1ccc(CCN=C(c2ccccc2)c2ccccc2)cc1OC", "8.75% (inactive)"],
  ["O=CCCc1ccccc1", "-22.2% (inactive)"],
  ["COc1cc2c3cc1Oc1c(OC)c(OC)cc4c1C(Cc1ccc(O)c(c1)Oc1ccc(cc1)CC3N(C)CC2)CN(C)C4 (centres undefined)", "-3.6% (inactive)"]
]}
